- target_desc: brain acetylcholinesterase (AChE) (Rattus norvegicus, UniProt P37136)
- Construct: corpora striata dissected free, weighed and homogenized in 19 volumes
- Sequence (P37136 32-614): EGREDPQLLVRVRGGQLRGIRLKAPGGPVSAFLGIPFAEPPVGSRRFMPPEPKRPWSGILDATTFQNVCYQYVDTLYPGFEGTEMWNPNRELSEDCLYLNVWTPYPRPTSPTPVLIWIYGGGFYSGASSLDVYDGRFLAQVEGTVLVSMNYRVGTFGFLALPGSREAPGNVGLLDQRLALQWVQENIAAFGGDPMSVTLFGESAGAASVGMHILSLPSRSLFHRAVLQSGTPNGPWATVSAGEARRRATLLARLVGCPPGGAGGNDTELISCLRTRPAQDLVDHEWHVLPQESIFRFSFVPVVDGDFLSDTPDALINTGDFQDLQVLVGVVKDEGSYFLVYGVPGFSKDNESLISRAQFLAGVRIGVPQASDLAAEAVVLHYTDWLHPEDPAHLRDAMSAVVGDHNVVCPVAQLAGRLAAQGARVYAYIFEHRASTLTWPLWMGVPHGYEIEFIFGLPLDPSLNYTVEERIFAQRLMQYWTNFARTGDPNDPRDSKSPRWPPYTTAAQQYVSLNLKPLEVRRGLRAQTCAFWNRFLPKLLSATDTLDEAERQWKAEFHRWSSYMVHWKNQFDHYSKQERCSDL
- assay_name: In Vitro Inhibition of Acetylcholinesterase Activity in Rat Striatum
property_label: IC50

molecule | IC50
CNC(=O)Oc1ccc2c(c1)C1CCN(C)C(C1)N2C (centres unmarked) | 0.058 µM

-- ask Fill blank: measured IC50 of the molecule CN1CCC2CC1N(C)c1ccc(OC(=O)NC3CCCCC3)cc12 (centres unmarked) is ____.
-- reply 10.7 µM
